Provide the reported inhibition at 0.0032 µM of each item.
system: LN229 cells; assay: High-throughput screening: cell viability (resazurin), compounds with DMSO or Gamitrinib; format: cell-based, Human; conditions: Homo sapiens, LN-229; compound 0.0032 uM + DMSO (control); read-out: Percent inhibition
Numbers only, in %.

Recorded inhibition at 0.0032 µM, per entry:
item_smiles=Cn1c(=O)n(-c2ccc(C(C)(C)C#N)cc2)c2c3cc(-c4cnc5ccccc5c4)ccc3ncc21 measured_target="LN229 cells" readout="inhibition at 0.0032 µM" recorded_result=60.7
item_smiles=Nc1cc(C(F)(F)F)c(-c2cc(N3CCOCC3)nc(N3CCOCC3)n2)cn1 measured_target="LN229 cells" readout="inhibition at 0.0032 µM" recorded_result=3.42
item_smiles=CS(=O)(=O)N1CCN(Cc2cc3nc(-c4cccc5[nH]ncc45)nc(N4CCOCC4)c3s2)CC1 measured_target="LN229 cells" readout="inhibition at 0.0032 µM" recorded_result=-17.3
item_smiles=Cc1cc([C@@H](C)Nc2ccccc2C(=O)O)c2nc(N3CCOCC3)cc(=O)n2c1 measured_target="LN229 cells" readout="inhibition at 0.0032 µM" recorded_result=-4.1

Okay, now this compound:
# lookup: inhibition at 0.0032 µM of COc1ncc(-c2ccc3nccc(-c4ccnnc4)c3c2)cc1NS(=O)(=O)c1ccc(F)cc1F 38.1

###

system: LN229 cells; experiment: High-throughput screening: cell viability (resazurin), compounds with DMSO or Gamitrinib; type: cell-based, Human; details: compound 0.0032 uM + Gamitrinib (1 μM)
Provide the reported Percent inhibition of each item.
One number for each entry, in %.

Recorded Percent inhibition, per entry:
item_smiles=CS(=O)(=O)N1CCN(Cc2cc3nc(-c4cccc5[nH]ncc45)nc(N4CCOCC4)c3s2)CC1 measured_target="LN229 cells" measurement_unit=% recorded_result=19.20
item_smiles=COc1ncc(-c2ccc3nccc(-c4ccnnc4)c3c2)cc1NS(=O)(=O)c1ccc(F)cc1F measured_target="LN229 cells" measurement_unit=% recorded_result=139.92
item_smiles=Cn1c(=O)n(-c2ccc(C(C)(C)C#N)cc2)c2c3cc(-c4cnc5ccccc5c4)ccc3ncc21 measured_target="LN229 cells" measurement_unit=% recorded_result=134.66
item_smiles=Nc1cc(C(F)(F)F)c(-c2cc(N3CCOCC3)nc(N3CCOCC3)n2)cn1 measured_target="LN229 cells" measurement_unit=% recorded_result=140.77

Okay, now this compound:
# lookup: Percent inhibition of Cc1cc([C@@H](C)Nc2ccccc2C(=O)O)c2nc(N3CCOCC3)cc(=O)n2c1 123.40

###

system: LN229 cells; experiment: High-throughput screening: cell viability (resazurin), compounds with DMSO or Gamitrinib; format: cell-based, Human; conditions: compound 2 uM + Gamitrinib (1 μM)
Provide the reported Percent inhibition of each item.
Give bare numbers, in %.

Recorded Percent inhibition, per entry:
item_smiles=Nc1cc(C(F)(F)F)c(-c2cc(N3CCOCC3)nc(N3CCOCC3)n2)cn1 recorded_result=151.13
item_smiles=COc1ncc(-c2ccc3nccc(-c4ccnnc4)c3c2)cc1NS(=O)(=O)c1ccc(F)cc1F recorded_result=142.85
item_smiles=Cn1c(=O)n(-c2ccc(C(C)(C)C#N)cc2)c2c3cc(-c4cnc5ccccc5c4)ccc3ncc21 recorded_result=137.11
item_smiles=Cc1cc([C@@H](C)Nc2ccccc2C(=O)O)c2nc(N3CCOCC3)cc(=O)n2c1 recorded_result=133.90

# lookup: Percent inhibition of CS(=O)(=O)N1CCN(Cc2cc3nc(-c4cccc5[nH]ncc45)nc(N4CCOCC4)c3s2)CC1 140.39
